Biological target: T1, LHRH binding sites on EFO-27 human ovarian cancer cells (human)
T1 chain: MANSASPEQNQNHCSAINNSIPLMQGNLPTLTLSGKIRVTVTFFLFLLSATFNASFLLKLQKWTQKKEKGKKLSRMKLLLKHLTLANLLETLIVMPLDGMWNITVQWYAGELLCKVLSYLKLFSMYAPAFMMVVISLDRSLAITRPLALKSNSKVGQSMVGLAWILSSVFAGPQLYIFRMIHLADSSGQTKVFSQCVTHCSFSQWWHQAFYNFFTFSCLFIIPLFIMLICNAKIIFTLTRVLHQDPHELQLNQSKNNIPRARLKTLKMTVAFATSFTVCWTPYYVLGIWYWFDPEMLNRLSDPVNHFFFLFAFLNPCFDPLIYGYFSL
Assay: competition with [125I-Tyr8]BRU-2477 on EFO-27 cells
pEC50: −log10 of the molar value. Non-standard residues stand in square brackets, D forms with d. Bpa = N[C@@H](Cc1ccc(C(=O)c2ccccc2)cc1)C(=O)O; d2Nal = N[C@H](Cc1ccc2ccccc2c1)C(=O)O; DO3A10CM = not defined here; azaGly = NNC(=O)O
Listing: pEC50 of selected binders

{"columns": ["Binder", "pEC50"],
 "data": [
  ["XRWNHXWXPX (DO3A10CM on N-terminus; AA1 Dnal2; AA6 Darg; AA8 Bpa4; AA10 azaGly-NH2, AA4 Asn) [BRU-2956]", 6.55],
  ["DO3A10CM-[d2Nal]RWWH[dR]W[Bpa]P[azaGly]-NH2 (reading uncertain, AA4 Trp) [BRU-3114]", 4.94],
  ["DO3A10CM-[d2Nal]RWMH[dR]W[Bpa]P[azaGly]-NH2 (reading uncertain, AA4 Met) [BRU-2964]", 6.66],
  ["DO3A10CM-[d2Nal]RWLH[dR]W[Bpa]P[azaGly]-NH2 (reading uncertain, AA4 Leu) [BRU-3113]", 5.95],
  ["DO3A10CM-[d2Nal]RWDH[dR]W[Bpa]P[azaGly]-NH2 (reading uncertain, AA4 Asp) [BRU-2954]", 5.38]
]}
